Parameter: melting point. Scope: all listed entries.

Check out these entries, answers already filled in.
# compound, assay_result
measured = [
    ("Cc1nc(-c2cc3ccccc3oc2=O)ccc1C(=O)/C=C/c1ccc([N+](=O)[O-])cc1 [Compound 5e]", "202 to 204 °C"),
    ("Cc1ccc(/C=C/C(=O)c2ccc(-c3cc4ccccc4oc3=O)nc2C)cc1 [Compound 5d]", "206 to 208 °C"),
    ("COc1cc(/C=C/C(=O)c2ccc(-c3cc4ccccc4oc3=O)nc2C)cc(OC)c1OC [Compound 5i]", "186 to 188 °C"),
]

Input: Give the measured melting point of Cc1nc(-c2cc3ccccc3oc2=O)ccc1C(=O)/C=C/c1ccc2c(c1)OCO2 [Compound 5j] .
Output: 178 to 180 °C
